# test.system: human notum pectinacetyltransferase (Homo sapiens, UniProt Q6P988)
# Construct: made in house; unpurified conditioned medium used
# measurement.notes: Binding assay (OPTS esterase substrate, fluorimetric)
# Type: biochemical
# test.settings: class symbols
# Procedure: Plasmid containing human notum pectinacetyltransferase in pcDNA3.1(+) vector was transfected into HEK (293 cells and clones were selecting by growing in presence of 400 ug/mL of G418. Condition media from these cells was used for the assay.
measurement.label: IC50

Lookup: Answer with the recorded IC50 of "O=C(O)c1cc2c(s1)-c1c(F)cc(F)cc1OC2" only.
Found: < 2 µM

Lookup: Answer with the recorded IC50 of "NC(=O)c1cc2c(s1)-c1cccc(F)c1OC2" only.
Found: < 0.05 µM

Lookup: Answer with the recorded IC50 of "O=C(O)c1cc2c(s1)-c1cc(F)cc(F)c1S(=O)(=O)C2" only.
Found: < 1 µM

Lookup: Answer with the recorded IC50 of "NC(=O)c1cc2c(s1)-c1c(Cl)ccc(Cl)c1OC2" only.
Found: < 0.05 µM

Lookup: Answer with the recorded IC50 of "O=C(O)c1cc2c(s1)-c1ccc(Cl)cc1OC2" only.
Found: < 0.1 µM

Lookup: Answer with the recorded IC50 of "O=C(NCCc1nnn[nH]1)c1cc2c(s1)-c1cccc(F)c1CC2" only.
Found: < 1 µM

Lookup: Answer with the recorded IC50 of N#CC1CCN(C(=O)c2cc3c(s2)-c2ccc(Cl)c(Cl)c2OC3)C1 (stereo not shown) only.
Found: < 0.1 µM

Lookup: Answer with the recorded IC50 of "O=C(O)c1cc2c(s1)-c1cc(Cl)cc(Cl)c1SC2" only.
Found: < 1 µM

Lookup: Answer with the recorded IC50 of "O=C(O)c1cc2c(s1)-c1c(F)ccc(F)c1OC2" only.
Found: < 0.1 µM

Lookup: Answer with the recorded IC50 of "NC(=O)c1cc2c(s1)-c1cc(F)c(F)cc1OC2" only.
Found: < 0.1 µM

Lookup: Answer with the recorded IC50 of "NC(=O)c1cc2c(s1)-c1cc(F)cc(Cl)c1SC2" only.
Found: < 0.1 µM

Lookup: Answer with the recorded IC50 of "Cc1cc(C)c2c(c1)-c1sc(C(=O)O)cc1CO2" only.
Found: < 1 µM

Lookup: Answer with the recorded IC50 of "O=C(O)c1cc2c(s1)-c1cc(F)c(F)cc1S(=O)(=O)C2" only.
Found: < 2 µM

Lookup: Answer with the recorded IC50 of "NC(=O)c1cc2c(s1)-c1cc(F)cc(F)c1OC2" only.
Found: < 0.05 µM

Lookup: Answer with the recorded IC50 of "Cc1cc2c(cc1C)-c1sc(C(N)=O)cc1CC2" only.
Found: < 2 µM

Lookup: Answer with the recorded IC50 of "O=C(O)c1cc2c(s1)-c1cc(F)ccc1S(=O)(=O)C2" only.
Found: < 1 µM

Lookup: Answer with the recorded IC50 of "NC(=O)c1cc2c(s1)-c1cc(F)c(Cl)cc1SC2" only.
Found: < 0.1 µM

Lookup: Answer with the recorded IC50 of "CC(C)(C)OC(=O)NCCNC(=O)c1cc2c(s1)-c1ccccc1CC2" only.
Found: < 2 µM

Lookup: Answer with the recorded IC50 of "O=C(O)c1cc2c(s1)-c1cc(Cl)c(Cl)cc1CC2" only.
Found: < 0.1 µM

Lookup: Answer with the recorded IC50 of "O=C(NO)c1cc2c(s1)-c1ccccc1CC2" only.
Found: < 0.05 µM

====

# test.system: human notum pectinacetyltransferase (Homo sapiens)
# Construct: made in house; unpurified conditioned medium used
# Sequence (Q6P988 20-496): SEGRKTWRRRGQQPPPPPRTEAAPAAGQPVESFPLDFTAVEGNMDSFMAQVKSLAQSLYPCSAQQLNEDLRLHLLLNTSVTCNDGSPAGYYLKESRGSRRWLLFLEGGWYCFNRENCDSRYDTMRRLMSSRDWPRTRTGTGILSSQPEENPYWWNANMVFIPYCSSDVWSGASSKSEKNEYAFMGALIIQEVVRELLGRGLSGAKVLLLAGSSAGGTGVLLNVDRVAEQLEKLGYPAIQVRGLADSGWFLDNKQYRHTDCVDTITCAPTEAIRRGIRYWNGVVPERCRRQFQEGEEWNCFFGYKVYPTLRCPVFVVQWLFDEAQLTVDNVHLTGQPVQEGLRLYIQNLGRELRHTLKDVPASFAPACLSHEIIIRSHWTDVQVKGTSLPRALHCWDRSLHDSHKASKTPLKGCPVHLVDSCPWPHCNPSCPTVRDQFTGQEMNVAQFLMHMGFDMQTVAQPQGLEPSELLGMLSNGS
# measurement.notes: Reporter assay (CellSensor LEF/TCF-bla FreeStyle 293F cells, Wnt3a and notum conditioned media)
# Type: cell-based
# test.settings: class symbols
measurement.label: EC50

Below, each entry is followed by its recorded EC50 result.
In [3]: df
Out[3]:
                                   compound  measurement_label  obs_value
0  O=C(c1cc2c(s1)-c1c(F)ccc(F)c1SC2)N1CC[C@H](F)C1               EC50    < 50 nM
1           NC(=O)c1cc2c(s1)-c1ccc(F)cc1CC2               EC50    < 50 nM
2  O=C(c1cc2c(s1)-c1ccc(F)c(F)c1CC2)N1CCC(F)C1 (stereo not drawn)               EC50    < 50 nM
3             O=C(O)c1cc2c(s1)-c1ccccc1CCC2               EC50  < 1000 nM
4         COCCNC(=O)c1cc2c(s1)-c1ccccc1CCC2               EC50   < 500 nM

The record that follows has no EC50 shown yet.
Lookup: Output reported EC50 of the compound "O=C(NO)c1cc2c(s1)-c1ccccc1CC2" on human notum pectinacetyltransferase (Homo sapiens).
Found: < 50 nM

====

# test.system: human notum pectinacetyltransferase (Homo sapiens)
# Construct: made in house; unpurified conditioned medium used
# measurement.notes: Binding assay (OPTS esterase substrate, fluorimetric)
# Assay type: biochemical
# test.settings: class symbols
pIC50: −log10 of the molar value.
measurement.label: pIC50

Below, each entry is followed by its recorded pIC50 result.
                                   compound  obs_value
0  COC1CCN(C(=O)c2cc3c(s2)-c2cccc(F)c2CC3)C1 (stereo not shown)     > 7.30
1        NC(=O)c1cc2c(s1)-c1c(F)ccc(F)c1OC2     > 7.30
2             O=C(O)c1cc2c(s1)-c1ccccc1OCC2     > 7.30
3  O=C(c1cc2c(s1)-c1ccc(F)c(F)c1CC2)N1CCC(F)C1 (stereo not shown)     > 7.00

Lookup: Output reported pIC50 of the compound CC1Cc2cc(C(N)=O)sc2-c2cc(F)ccc21 (stereo not shown) on human notum pectinacetyltransferase (Homo sapiens).
Found: > 7.30

Lookup: Output reported pIC50 of the compound "NC(=O)c1cc2c(s1)-c1cc(Cl)ccc1OCC2" on human notum pectinacetyltransferase (Homo sapiens).
Found: > 7.00

Lookup: Output reported pIC50 of the compound "O=C(O)c1cc2c(s1)-c1cc(F)cc(F)c1OC2" on human notum pectinacetyltransferase (Homo sapiens).
Found: > 7.30

====

# test.system: human notum pectinacetyltransferase (Homo sapiens, UniProt Q6P988)
# Construct: made in house; unpurified conditioned medium used
# measurement.notes: Binding assay (OPTS esterase substrate, fluorimetric)
# Assay type: biochemical
# test.settings: class symbols
pIC50: −log10 of the molar value.
Recorded pIC50, one value per entry.

Below, each entry is followed by its recorded pIC50 result.
In [3]: df
Out[3]:
                                   compound  measurement_label  obs_value
0      N#Cc1cc(F)c2c(c1)-c1sc(C(=O)O)cc1CO2              pIC50     > 6.00
1  COCCNC(=O)c1cc2c(s1)-c1ccc(OC)c(Cl)c1CC2              pIC50     > 6.00
2           O=C(O)c1cc2c(s1)-c1cccc(F)c1OC2              pIC50     > 6.00
3     CCOC(=O)c1cc2c(s1)-c1ccc(Cl)c(F)c1SC2              pIC50     > 6.00
4  O=C(O)C1CN(C(=O)c2cc3c(s2)-c2ccc(Cl)c(F)c2OC3)CC1c1cccs1 (stereo not shown)              pIC50     > 6.00
5  COC(=O)C1CN(C(=O)c2cc3c(s2)-c2cc(C)cc(F)c2CC3)CC1c1ccccc1 (stereo not shown)              pIC50     > 6.00

Lookup: Answer with the recorded pIC50 of "CC1(C)Cc2cc(C(=O)O)sc2-c2ccccc21" only.
Found: > 6.00

Lookup: Answer with the recorded pIC50 of "Nc1c(C(=O)O)sc2c1CSc1ccccc1-2" only.
Found: > 6.00

Lookup: Answer with the recorded pIC50 of "NC(=O)c1cc2c(s1)-c1ccc(F)c(F)c1OC2" only.
Found: > 7.30

Lookup: Answer with the recorded pIC50 of "O=C(NCCN1CCCCC1)c1cc2c(s1)-c1ccccc1CC2" only.
Found: > 6.00

Lookup: Answer with the recorded pIC50 of "Cc1ccc(C)c2c1OCc1cc(C(N)=O)sc1-2" only.
Found: > 7.00

Lookup: Answer with the recorded pIC50 of "O=C(O)c1cc2c(s1)-c1ccc(F)c(F)c1OC2" only.
Found: > 6.00

Lookup: Answer with the recorded pIC50 of "O=C(O)c1cc2c(s1)-c1cc(Br)cc(Cl)c1OC2" only.
Found: > 7.30
